# system: MmCLK1 (Mus musculus)
# Construct: host or cells: bacteria
# protocol.details: ADP-Glo kinase assay
# Type: biochemical
reported.property: IC50 (nM)
// units = nM; emit number, no label

`Cc1ccc(-n2cc(COc3cccc4cnc(Nc5cccc(Cl)c5)nc34)nn2)c([N+](=O)[O-])c1` yielded IC50 of 120

----------
# system: HsCLK1 (Homo sapiens, UniProt P49759)
# Construct: host or cells: Sf9 insect cells (baculovirus)
# Sequence (P49759 whole entry): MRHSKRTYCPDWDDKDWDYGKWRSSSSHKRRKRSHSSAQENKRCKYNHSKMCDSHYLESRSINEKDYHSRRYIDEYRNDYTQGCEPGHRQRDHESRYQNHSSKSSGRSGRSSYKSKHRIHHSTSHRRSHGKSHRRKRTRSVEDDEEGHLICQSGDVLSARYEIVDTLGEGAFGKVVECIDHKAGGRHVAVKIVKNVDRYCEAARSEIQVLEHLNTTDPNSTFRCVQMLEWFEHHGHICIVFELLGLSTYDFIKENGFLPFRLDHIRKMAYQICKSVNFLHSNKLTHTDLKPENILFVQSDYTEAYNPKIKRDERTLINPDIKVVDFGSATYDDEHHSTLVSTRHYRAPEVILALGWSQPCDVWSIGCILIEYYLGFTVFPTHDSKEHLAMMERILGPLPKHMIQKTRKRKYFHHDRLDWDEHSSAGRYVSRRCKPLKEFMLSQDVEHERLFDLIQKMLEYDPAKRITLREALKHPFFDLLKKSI
# protocol.details: ADP-Glo kinase assay
# Format: biochemical
# test.settings: read-out: IC50 human CLK1
reported.property: IC50

So, O=[N+]([O-])c1cc(CO)ccc1-n1cc(COc2cccc3cnc(Nc4cccc(Cl)c4)nc23)nn1 [12e] ? Its IC50 was 0.15 to 0.2 µM

----------
# system: HsDYRK1A (Homo sapiens)
# Construct: host or cells: Sf9 insect cells (baculovirus)
# protocol.details: ADP-Glo kinase assay
# Format: biochemical
# test.settings: 10 µM, n=2; read-out: % of residual activity Hs_DYRK1A
Consider the following molecules; for each one, report its remaining activity at 10 µM.
Give just the numeric value; % need not be written.

// remaining activity at 10 µM lookup, molecule = N[C@H]1CC[C@H](n2cc(COc3cccc4cnc(Nc5cc(Cl)cc(Cl)c5)nc34)nn2)CC1 [19b] , result: 55

The recorded remaining activity at 10 µM for entry COC(=O)c1ccc(-n2cc(COc3cccc4cnc(Nc5cccc(Cl)c5)nc34)nn2)c([N+](=O)[O-])c1 [12f] equals 93

// remaining activity at 10 µM value for `Cc1ccc(-n2cc(COc3cccc4cnc(Nc5cc(Cl)cc(Cl)c5)nc34)nn2)c([N+](=O)[O-])c1` : 80

For N[C@H]1CC[C@@H](n2cc(COc3cccc4cnc(Nc5cccc(Cl)c5)nc34)nn2)CC1 [16a] the molecule record lists remaining activity at 10 µM as 36

For reference, reported remaining activity at 10 µM for O=C(O)c1ccc(-n2cc(COc3cccc4cnc(Nc5cccc(Cl)c5)nc34)nn2)c([N+](=O)[O-])c1 [12g] stands at 50

remaining activity at 10 µM reported for this molecule N[C@H]1CC[C@H](n2cc(COc3cccc4cnc(Nc5cccc(Cl)c5)nc34)nn2)CC1 [19a] : 34

Field remaining activity at 10 µM (entry O=[N+]([O-])c1cc(CO)ccc1-n1cc(COc2cccc3cnc(Nc4cccc(Cl)c4)nc23)nn1 [12e] ) reads 31

Input O=[N+]([O-])c1cc(Br)ccc1-n1cc(COc2cccc3cnc(Nc4cccc(Cl)c4)nc23)nn1 [12d] . Output remaining activity at 10 µM: 77

----------
# system: Hs_CK1ε (Homo sapiens, UniProt P49674)
# Construct: host or cells: Sf9 insect cells (baculovirus)
# Sequence (P49674 whole entry): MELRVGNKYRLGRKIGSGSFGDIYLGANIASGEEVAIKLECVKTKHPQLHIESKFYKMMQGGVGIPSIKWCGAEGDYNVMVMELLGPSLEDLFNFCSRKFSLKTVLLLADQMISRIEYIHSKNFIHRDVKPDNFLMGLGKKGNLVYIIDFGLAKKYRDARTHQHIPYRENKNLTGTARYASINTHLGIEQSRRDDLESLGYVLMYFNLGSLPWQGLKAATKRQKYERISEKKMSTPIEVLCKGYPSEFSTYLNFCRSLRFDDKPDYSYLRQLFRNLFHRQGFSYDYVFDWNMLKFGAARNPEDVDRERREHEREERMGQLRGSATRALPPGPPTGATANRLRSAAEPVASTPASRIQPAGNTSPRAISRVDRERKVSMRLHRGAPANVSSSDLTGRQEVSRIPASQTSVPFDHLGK
# protocol.details: ADP-Glo kinase assay, primary screen
# Assay type: biochemical
# test.settings: 10 µM, n=2; read-out: % of residual activity Hs_CK1ε
reported.property: remaining activity at 10 µM (%)
Note: unit % is implicit; provide only the numeric part.

For this molecule ( CC(C)(C)OC(=O)N[C@H]1CC[C@H](n2cc(COc3cccc4cnc(Nc5cccc(Cl)c5)nc34)nn2)CC1 [18a] ), measured remaining activity at 10 µM is 78

The recorded remaining activity at 10 µM for O=C(O)c1ccc(-n2cc(COc3cccc4cnc(Nc5cccc(Cl)c5)nc34)nn2)c([N+](=O)[O-])c1 [12g] is 72

Just so you know, measured remaining activity at 10 µM for Cc1ccc(-n2cc(COc3cccc4cnc(Nc5cc(Cl)cc(Cl)c5)nc34)nn2)c([N+](=O)[O-])c1 [7b] came out at 47

Reported remaining activity at 10 µM of O=[N+]([O-])c1cc(CO)ccc1-n1cc(COc2cccc3cnc(Nc4cccc(Cl)c4)nc23)nn1 [12e] : 52

What the record says about N[C@H]1CC[C@@H](n2cc(COc3cccc4cnc(Nc5cc(Cl)cc(Cl)c5)nc34)nn2)CC1 [16b] : remaining activity at 10 µM is 24

Please fill in: remaining activity at 10 µM reported for O=[N+]([O-])c1cc(Br)ccc1-n1cc(COc2cccc3cnc(Nc4cccc(Cl)c4)nc23)nn1 [12d] = 90

Record CC(C)(C)OC(=O)N[C@H]1CC[C@@H](n2cc(COc3cccc4cnc(Nc5cccc(Cl)c5)nc34)nn2)CC1 [15a] , field remaining activity at 10 µM: 97

Reported remaining activity at 10 µM of N[C@H]1CC[C@H](n2cc(COc3cccc4cnc(Nc5cc(Cl)cc(Cl)c5)nc34)nn2)CC1 [19b] : 20

Value of measured remaining activity at 10 µM for the entry CC(C)(C)OC(=O)N[C@H]1CC[C@H](n2cc(COc3cccc4cnc(Nc5cc(Cl)cc(Cl)c5)nc34)nn2)CC1 [18b] : 92

// remaining activity at 10 µM lookup, molecule = Cc1ccc(-n2cc(COc3cccc4cnc(Nc5ccccc5)nc34)nn2)c([N+](=O)[O-])c1 [7a] , result: 89

Lab note: CC(C)(C)OC(=O)N[C@H]1CC[C@@H](n2cc(COc3cccc4cnc(Nc5cc(Cl)cc(Cl)c5)nc34)nn2)CC1 [15b] gave remaining activity at 10 µM of 81

Lab note: measured remaining activity at 10 µM of N[C@H]1CC[C@@H](n2cc(COc3cccc4cnc(Nc5cccc(Cl)c5)nc34)nn2)CC1 [16a] was 21

Lookup result for COC(=O)c1ccc(-n2cc(COc3cccc4cnc(Nc5cccc(Cl)c5)nc34)nn2)c([N+](=O)[O-])c1 [12f] ; measured remaining activity at 10 µM: 95

get_value(item= O=[N+]([O-])c1cc(O)ccc1-n1cc(COc2cccc3cnc(Nc4cccc(Cl)c4)nc23)nn1 [12c] , readout=remaining activity at 10 µM) returns 81

Memo: N[C@H]1CC[C@H](n2cc(COc3cccc4cnc(Nc5cccc(Cl)c5)nc34)nn2)CC1 [19a] , reported remaining activity at 10 µM: 22

----------
# protocol.details: cytotoxic assay, nuclei count (Hoechst, HCS)
# Type: cell-based
# test.settings: human, MDA-MB-468 cells (breast carcinoma); 48 h treatment; read-out: Cytotoxic studies IC50 MDA-MB-468
Please respond with reported IC50 at 48 h for every item in the list.
Return type: number; implicit unit µM.

Kindly note the recorded IC50 at 48 h for N[C@H]1CC[C@@H](n2cc(COc3cccc4cnc(Nc5cccc(Cl)c5)nc34)nn2)CC1 [16a] , which is 9

The measured IC50 at 48 h associated with CC(C)(C)OC(=O)N[C@H]1CC[C@@H](n2cc(COc3cccc4cnc(Nc5cccc(Cl)c5)nc34)nn2)CC1 [15a] reads 18

# IC50 at 48 h (molecule: CC(C)(C)OC(=O)N[C@H]1CC[C@H](n2cc(COc3cccc4cnc(Nc5cccc(Cl)c5)nc34)nn2)CC1 [18a] ) is 15

Item: N[C@H]1CC[C@H](n2cc(COc3cccc4cnc(Nc5cccc(Cl)c5)nc34)nn2)CC1 [19a] | IC50 at 48 h: 7

----------
# system: MmCLK1 (Mus musculus, UniProt P22518)
# Construct: host or cells: bacteria
# Sequence (P22518 whole entry): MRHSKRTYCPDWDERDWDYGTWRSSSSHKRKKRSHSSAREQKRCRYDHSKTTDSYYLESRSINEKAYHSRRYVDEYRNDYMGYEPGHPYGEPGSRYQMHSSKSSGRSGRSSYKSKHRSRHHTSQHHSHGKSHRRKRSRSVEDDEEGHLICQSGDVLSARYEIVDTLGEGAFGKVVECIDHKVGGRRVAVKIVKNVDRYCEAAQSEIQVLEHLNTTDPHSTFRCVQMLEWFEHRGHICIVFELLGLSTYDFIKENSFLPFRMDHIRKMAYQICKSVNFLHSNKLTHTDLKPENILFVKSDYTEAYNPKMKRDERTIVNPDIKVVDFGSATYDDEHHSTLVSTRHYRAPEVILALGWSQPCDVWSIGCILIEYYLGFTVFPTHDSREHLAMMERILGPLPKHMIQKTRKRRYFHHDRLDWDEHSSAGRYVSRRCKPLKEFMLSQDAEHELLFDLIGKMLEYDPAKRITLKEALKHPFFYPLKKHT
# protocol.details: ADP-Glo kinase assay
# Format: biochemical
# test.settings: 1 µM, n=2; read-out: % of residual activity Mm_CLK1
reported.property: remaining activity at 1 µM

Record N[C@H]1CC[C@H](n2cc(COc3cccc4cnc(Nc5cccc(Cl)c5)nc34)nn2)CC1 [19a] , field remaining activity at 1 µM: 20%

So for O=C(O)c1ccc(-n2cc(COc3cccc4cnc(Nc5cccc(Cl)c5)nc34)nn2)c([N+](=O)[O-])c1 [12g] , the logged remaining activity at 1 µM turned out to be 13%

Please fill in: remaining activity at 1 µM reported for O=[N+]([O-])c1cc(O)ccc1-n1cc(COc2cccc3cnc(Nc4cccc(Cl)c4)nc23)nn1 [12c] = 36%

response.value for CC(C)(C)OC(=O)N[C@H]1CC[C@H](n2cc(COc3cccc4cnc(Nc5cccc(Cl)c5)nc34)nn2)CC1 [18a] (field: remaining activity at 1 µM) = 93%

----------
# system: Rn_DYRK1A (Rattus norvegicus, UniProt Q63470)
# Construct: host or cells: bacteria
# protocol.details: ADP-Glo kinase assay, primary screen
# Type: biochemical
# test.settings: 1 µM, n=2; read-out: % of residual activity Rn_DYRK1A
Task for the reader: assign each of the following compounds its reported remaining activity at 1 µM.
Number in %, nothing else.

response.value for CC(C)(C)OC(=O)N[C@H]1CC[C@@H](n2cc(COc3cccc4cnc(Nc5cc(Cl)cc(Cl)c5)nc34)nn2)CC1 [15b] (field: remaining activity at 1 µM) = 95

Recorded result, N[C@H]1CC[C@H](n2cc(COc3cccc4cnc(Nc5cccc(Cl)c5)nc34)nn2)CC1 [19a] , remaining activity at 1 µM: 78

Reported remaining activity at 1 µM of O=[N+]([O-])c1cc(CO)ccc1-n1cc(COc2cccc3cnc(Nc4cccc(Cl)c4)nc23)nn1 [12e] : 80

For reference, reported remaining activity at 1 µM for N[C@H]1CC[C@@H](n2cc(COc3cccc4cnc(Nc5cccc(Cl)c5)nc34)nn2)CC1 [16a] stands at 82

Briefly, remaining activity at 1 µM measured for N[C@H]1CC[C@H](n2cc(COc3cccc4cnc(Nc5cc(Cl)cc(Cl)c5)nc34)nn2)CC1 [19b] : 92

Note to self: remaining activity at 1 µM recorded for O=[N+]([O-])c1cc(O)ccc1-n1cc(COc2cccc3cnc(Nc4cccc(Cl)c4)nc23)nn1 [12c] was 81

For Cc1ccc(-n2cc(COc3cccc4cnc(Nc5cc(Cl)cc(Cl)c5)nc34)nn2)c([N+](=O)[O-])c1 [7b] the compound record lists remaining activity at 1 µM as 87

Note to self: remaining activity at 1 µM recorded for O=C(O)c1ccc(-n2cc(COc3cccc4cnc(Nc5cccc(Cl)c5)nc34)nn2)c([N+](=O)[O-])c1 [12g] was 61
